Some binders, each annotated with its measured % Relative activity (WT antibody/test antibody).
# target system: T1, human TNFR2 on the surface of CHO-TNFR2 cells (human, UniProt P20333 23-461)
# T1 construct: whole, on cells
# T1 sequence (looked up): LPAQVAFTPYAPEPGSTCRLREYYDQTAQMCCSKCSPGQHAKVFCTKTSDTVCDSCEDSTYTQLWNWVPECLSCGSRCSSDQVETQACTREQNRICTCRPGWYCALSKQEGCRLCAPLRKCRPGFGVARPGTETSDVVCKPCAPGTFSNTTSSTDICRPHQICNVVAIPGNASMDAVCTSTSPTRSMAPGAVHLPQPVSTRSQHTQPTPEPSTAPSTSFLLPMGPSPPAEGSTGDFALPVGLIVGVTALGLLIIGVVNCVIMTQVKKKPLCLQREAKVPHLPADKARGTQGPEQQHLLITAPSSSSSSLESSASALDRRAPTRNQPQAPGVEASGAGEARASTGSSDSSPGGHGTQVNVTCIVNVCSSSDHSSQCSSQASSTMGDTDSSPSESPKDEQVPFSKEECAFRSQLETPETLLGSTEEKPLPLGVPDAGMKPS
# experiment description: flow cytometry on CHO-TNFR2 cells; EC50 against 224-WT
# output: bare number, implied unit %

Record excerpt, results attached:
>  <binder>
224-Hu2 (antibody, V domains shown, Humanized form of #224; also called VH9 + VL7) VH: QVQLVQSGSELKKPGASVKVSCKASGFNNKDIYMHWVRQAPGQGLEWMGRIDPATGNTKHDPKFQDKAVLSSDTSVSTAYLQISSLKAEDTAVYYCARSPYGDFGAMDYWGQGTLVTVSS VL: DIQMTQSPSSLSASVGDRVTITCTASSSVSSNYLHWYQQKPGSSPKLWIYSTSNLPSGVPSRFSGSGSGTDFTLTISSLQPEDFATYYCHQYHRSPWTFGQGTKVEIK

>  <units label>
%

>  <observed>
119

$$$$
>  <binder>
224-Hu3 (antibody, V domains shown, Humanized form of #224; also called VH9 + VL8) VH: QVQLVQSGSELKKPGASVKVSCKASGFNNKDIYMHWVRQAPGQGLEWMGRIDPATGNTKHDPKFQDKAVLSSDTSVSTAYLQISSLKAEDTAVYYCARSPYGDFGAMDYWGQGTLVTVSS VL: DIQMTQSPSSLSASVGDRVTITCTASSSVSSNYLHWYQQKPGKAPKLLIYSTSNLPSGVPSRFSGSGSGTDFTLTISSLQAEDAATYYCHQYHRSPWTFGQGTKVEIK

>  <units label>
%

>  <observed>
116

$$$$

Now, please, on to the next binder.
Quick note, % Relative activity (WT antibody/test antibody) for 224-Hu1 (antibody, V domains shown, Humanized form of #224; also called VH8 + VL6) VH: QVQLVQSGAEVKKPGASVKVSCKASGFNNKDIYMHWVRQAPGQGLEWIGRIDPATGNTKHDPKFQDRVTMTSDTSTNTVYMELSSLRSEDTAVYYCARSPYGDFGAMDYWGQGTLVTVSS VL: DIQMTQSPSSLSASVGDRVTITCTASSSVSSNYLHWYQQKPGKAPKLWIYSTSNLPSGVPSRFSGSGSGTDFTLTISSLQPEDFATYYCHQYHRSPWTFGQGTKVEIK landed at 94.5
